- Test system: Plasmodium berghei
- Assay Comment: Screen against P. berghei liver stage (PbLuc), transformed with Luciferase, at 10uM
- Type: functional, HepG2
- Stated Conditions: tested at 10 uM
The whole screen tested about 69,000 compounds, of which about 8,600 (12%) showed an effect of 50% or more. For the sample, strong results were picked, then their nearest neighbours and some compounds at random.
Rule: INHIBITION under 20% gives -1, otherwise 1.

Molecule	Qualitative Label
Cc1nc(CN2CCC3(CC2)CC(c2cccnc2)C(=O)N3C)cs1 (configuration not stated)	1
CCOc1ccc(C(=O)CCC(=O)NCc2cncn2CC)cc1C	-1
N#Cc1cccc(CN2CC3(CCCCN3c3cccnc3)CC2=O)c1 (configuration not stated)	1
Cc1cccc(OCCC(=O)N(C)CCC#N)c1C	-1
CSCCC(C)NC(=O)N1CCSC(C)(C)C1 (configuration not stated)	-1
CCc1ccc(NC(=O)N2C[C@@H]3C[C@H](C(=O)NC)[C@H](C2)O3)cc1	-1
COCCCN1C(=O)CC[C@H]2CN(Cc3cc4ccccc4o3)CC[C@H]21	1
O=C(c1cscn1)N1CCn2cnc(COCC3CC3)c2C1	-1
CCc1ncnc2c1CCN(Cc1nccs1)CC2	-1
O=C(c1cnccn1)N1CCn2cnc(COCC3CC3)c2C1	1
CCOc1ccc(C(=O)CCC(=O)NCCc2nncn2CC)cc1C	-1
CCOC(=O)CCNC(=O)N1CCOC(Cc2cccc(OC)c2)C1 (configuration not stated)	1
Cn1cnnc1C1CCCN(C(=O)COc2ccccc2Cl)C1 (configuration not stated)	-1
Cc1ccccc1CSc1ncccc1C(=O)N(C)C	-1
COCc1cc(CN(C)C(=O)CCC(=O)Nc2cc(C)ccc2F)n[nH]1	1
CCOCc1ncn2c1CN(C(=O)c1ccoc1)CC2	1
O=C(NCCCO)c1cc(-c2cc[nH]n2)n2ccccc12	-1
Cc1ccccc1CS(=O)(=O)CC(=O)NCc1ccccc1F	-1
COCCCN1C(=O)CC[C@H]2CN(Cc3ccc4occc4c3)CC[C@H]21	-1
COCCCN1C(=O)CC[C@H]2CN(Cc3ncc[nH]3)CC[C@H]21	1
Cc1ccc(F)c(NC(=O)CCC(=O)N(C)Cc2nc(C)c[nH]2)c1	1
Cc1cc(CCC(=O)NCc2ncc[nH]2)ccc1Br	1
CCCn1ccnc1-c1cccc(NC(=O)[C@H]2CCC(=O)N2)c1	1
Cc1noc(C)c1CN1CC2(CCN(Cc3c[nH]cn3)CC2)CC1=O	-1
CCOc1ccc(C(=O)CCC(=O)N(C)Cc2nc(C)c[nH]2)cc1C	1
CCc1nncn1CCNC(=O)N1CCN(Cc2ccccc2)CC1	1
CCc1cccc(NC(=O)CCC(=O)N(C)Cc2nc(C)c[nH]2)c1	-1
Cc1ccc(N2CC[C@H]3O[C@@H](C(=O)N4CCCCO4)CC[C@H]32)nn1	-1
CN(C)C(=O)c1nc(-c2ccc(S(C)(=O)=O)cc2)c2ccccn12	-1
Cc1cc(CCC(=O)NCc2nccn2C)ccc1Br	1
COCC1CN(C(=O)c2cccc(C)n2)Cc2nccn2C1 (configuration not stated)	1
COCCCN1C(=O)CC[C@H]2CN(c3ccnc4ccccc34)CC[C@H]21	1
COc1ccc(OCCN2CCCN(Cc3noc(C)n3)CC2)cc1	-1
COCCCN1C(=O)CC[C@H]2CN(c3cnc4ccccc4n3)CC[C@H]21	1
NC(=O)c1cnc(NC2CC2)nc1CCNC(=O)Cc1ccccc1	-1
CCc1nc(-c2cncnc2C2CCNC2)no1 (configuration not stated)	-1
Cc1c(COC(C)C)cccc1NC(=O)N1CCCC(CO)C1 (configuration not stated)	1
N#Cc1ccc(CN2CCN(c3ccncc3Cl)CC2=O)cc1	1
CC(C)(C)Nc1c(C2CCCN(C(=O)C3CC3)C2)nc2ccccn12 (configuration not stated)	-1
COCCC(C)NC(=O)N1CCSC(C)(C)C1 (configuration not stated)	1
N#Cc1cccc(CN2CC[C@@H]3[C@@H]2CC(=O)N3Cc2cccnc2)c1	1
Cc1nc(CN2CCCN(CCOc3ccc(C#N)cc3)CC2)no1	1
CN1CCC(Nc2ccc(F)cc2OCC(F)(F)F)C1=O (configuration not stated)	-1
Cc1noc(C)c1CN1CC2(CCCCN2C)CC1=O (configuration not stated)	1

All values here come from ChEMBL document CHEMBL4513216.
